molecular target: T1, huCD33-R69 stably expressed on Jurkat cells (human, UniProt P20138 18-364); experiment: FACS on cells;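 note: fixed Jurkat lines probed with myc-tagged scFv periplasmic extracts, anti-myc PE flow cytometry, PE MFI fold binned − <2, + 2–10, ++ 10–30, +++ >30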
T1 construct: whole, on cells; >200,000 receptors per cell; also called CD33 WT; CD33^ARG69
T1 sequence (P20138 18-364): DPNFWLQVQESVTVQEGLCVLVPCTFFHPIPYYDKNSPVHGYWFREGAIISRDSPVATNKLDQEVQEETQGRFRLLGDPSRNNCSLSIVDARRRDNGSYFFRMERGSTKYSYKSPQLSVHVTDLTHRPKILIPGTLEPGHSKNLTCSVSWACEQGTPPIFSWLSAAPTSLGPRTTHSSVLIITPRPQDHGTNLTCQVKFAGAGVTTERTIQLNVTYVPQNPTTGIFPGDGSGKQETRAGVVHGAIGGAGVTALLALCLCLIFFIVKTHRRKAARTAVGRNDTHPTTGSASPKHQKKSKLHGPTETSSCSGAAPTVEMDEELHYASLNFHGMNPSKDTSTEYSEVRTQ
Outcome measure: FACS geometric mean fold change over Jurkat parental

Quick one: FACS geometric mean fold change over Jurkat parental of Polypeptide No. 126 (scFv, V domains shown, scFv) VH: EVQLLESGGGLVQPGGSLRLSCAASGFTFTTYDMHWVRQAPGKGLEWVAGINWNSVIIDYADSVKGRFTISRDNSKNTLYLQMNSLRAEDTAVYYCAKDLLYYYDSIGAFDIWGQGTMVTVSS VL: DIQMTQSPSSLSASVGDRVTITCRASQSISTWLAWYQQKPGKAPKLLIYAASSLQSGVPSRFSGSGSGTDFTLTISSLQPEDFATYYCQQSDTLPLTFGGGTKVEIKR ?
> 30 fold
